system: HTT; experiment: Splicing RT-qPCR assay, HTT mRNA canonical junction (CJ) and alternative junction (AJ); assay type: cell-based, human; conditions: Homo sapiens, RT-qPCR panel, canonical junction mRNA; compound concentration having 50% response in CJ decrease; read-out: HTT IC50 (decrease in CJ mRNA levels)
pIC50: −log10 of the molar value.
Would you mind telling me the reported pIC50 of each entry?

Some solved entries appear below for comparison.
# COMPOUND, pIC50
measured = [
    ("Cc1cc(-c2ccc(-c3ccc(O[C@H]4C[C@@H]5CC(F)(F)[C@H](C4)N5)nn3)c3[nH]ncc23)ccn1 (single isomer, unassigned)", "< 5.00"),
    ("CC1(C)CC(Oc2ccc(-c3ccc(-c4cn[nH]c4)c4cn[nH]c34)nn2)CCN1 (stereo not shown)", "5.00 to 6.00"),
    ("CN(c1ncc(-c2ccc(-c3cn[nH]c3)c3ncsc23)nn1)C1CC(C)(C)NC(C)(C)C1", "6.00 to 7.00"),
    ("c1cnn(-c2ccc(-c3cnc(N4CCNC5(CC5)C4)nn3)c3cn[nH]c23)c1", "6.00 to 7.00"),
    ("c1n[nH]cc1-c1ccc(-c2ccc(S[C@@H]3C[C@H]4CC[C@@H](C3)N4)nn2)c2[nH]ncc12", "< 5.00"),
]

Give pIC50 for each of the items listed below.
1. CN(c1ccc(-c2ccc(-c3cnn(C)c3)c3cn[nH]c23)nn1)C1CCNCC1
2. c1cnn(-c2ccc(-c3ccc(O[C@@H]4C[C@H]5CC[C@@H](C4)N5)nn3)c3cn[nH]c23)c1

1. < 5.00
2. > 7.00

All figures here come from patent US20240368163A1.
